ASSAY: The drug is tested on Bacteroides xylanisolvens strain: DSM18836 for biotransformation. The drug concentrations were measured before and after a 12-h incubation by liquid-chromatography-coupled mass spectrometry (LC–MS)
STUDY CONDITIONS: 2 µM
EXPERIMENTAL READOUT: Bacterial Biotransformation

[[record]]
molecule = "COC1=CC(=O)C[C@@H](C)[C@]12Oc1c(Cl)c(OC)cc(OC)c1C2=O"
experimental_readout = "Bacterial Biotransformation"
endpoint_result = "Compound metabolized"

[[record]]
molecule = "CC(NC(C)(C)C)C(=O)c1cccc(Cl)c1 (stereo not drawn)"
experimental_readout = "Bacterial Biotransformation"
endpoint_result = "Compound NOT metabolized"

[[record]]
molecule = "CC(C)(C#N)c1cc(Cn2cncn2)cc(C(C)(C)C#N)c1"
experimental_readout = "Bacterial Biotransformation"
endpoint_result = "Compound metabolized"

[[record]]
molecule = "CCCCCNC(=N)N/N=C/c1c[nH]c2ccc(OC)cc12.O=C(O)/C=C\\C(=O)O [TEGASEROD MALEATE]"
experimental_readout = "Bacterial Biotransformation"
endpoint_result = "Compound NOT metabolized"

[[record]]
molecule = "COc1ccc2[nH]c([S+]([O-])Cc3ncc(C)c(OC)c3C)nc2n1 (stereo not drawn)"
experimental_readout = "Bacterial Biotransformation"
endpoint_result = "Compound metabolized"

[[record]]
molecule = "CS(=O)(=O)O.OC(CCN1CCCCC1)(c1ccccc1)c1ccccc1 [PRIDINOL METHANESULFONATE]"
experimental_readout = "Bacterial Biotransformation"
endpoint_result = "Compound NOT metabolized"

[[record]]
molecule = "CC(C)NCC(O)COc1ccc(COCCOC(C)C)cc1.CC(C)NCC(O)COc1ccc(COCCOC(C)C)cc1.O=C(O)/C=C/C(=O)O (stereo not drawn) [BISOPROLOL FUMARATE]"
experimental_readout = "Bacterial Biotransformation"
endpoint_result = "Compound NOT metabolized"

[[record]]
molecule = "CNNCc1ccc(C(=O)NC(C)C)cc1"
experimental_readout = "Bacterial Biotransformation"
endpoint_result = "Compound NOT metabolized"


====

ASSAY: The drug is tested on Collinsella aerofaciens strain: ATCC25986 for biotransformation. The drug concentrations were measured before and after a 12-h incubation by liquid-chromatography-coupled mass spectrometry (LC–MS)
STUDY CONDITIONS: 2 µM
EXPERIMENTAL READOUT: Bacterial Biotransformation

[[record]]
molecule = "CCCN1C[C@H](CSC)C[C@@H]2c3cccc4[nH]cc(c34)C[C@H]21.CS(=O)(=O)O [PERGOLIDE MESYLATE]"
endpoint_result = "Compound NOT metabolized"

[[record]]
molecule = "CCCCCCOC(=O)/N=C(/N)c1ccc(NCc2nc3cc(C(=O)N(CCC(=O)OCC)c4ccccn4)ccc3n2C)cc1.CS(=O)(=O)O [DABIGATRAN ETEXILATE MESYLATE]"
endpoint_result = "Compound NOT metabolized"

[[record]]
molecule = "CCOC(=O)C1=C(C)NC(C)=C(C(=O)OC)C1c1cccc([N+](=O)[O-])c1 (stereo not given)"
endpoint_result = "Compound metabolized"

[[record]]
molecule = "CN[C@H]1CC[C@@H](c2ccc(Cl)c(Cl)c2)c2ccccc21"
endpoint_result = "Compound NOT metabolized"

[[record]]
molecule = "CC[C@H](C)C(=O)O[C@H]1CCC=C2C=C[C@H](C)[C@H](CC[C@@H]3C[C@@H](O)CC(=O)O3)[C@H]21"
endpoint_result = "Compound metabolized"

[[record]]
molecule = "C[C@@H](c1ncncc1F)[C@](O)(Cn1cncn1)c1ccc(F)cc1F"
endpoint_result = "Compound NOT metabolized"

[[record]]
molecule = "COc1ccc2[nH]c([S+]([O-])Cc3ncc(C)c(OC)c3C)nc2n1 (stereo not given)"
endpoint_result = "Compound metabolized"

[[record]]
molecule = "CN1C[C@H](C(=O)N[C@]2(C)O[C@@]3(O)[C@@H]4CCCN4C(=O)[C@H](Cc4ccccc4)N3C2=O)C=C2c3cccc4[nH]cc(c34)C[C@H]21.CN1C[C@H](C(=O)N[C@]2(C)O[C@@]3(O)[C@@H]4CCCN4C(=O)[C@H](Cc4ccccc4)N3C2=O)C=C2c3cccc4[nH]cc(c34)C[C@H]21.O=C(O)C(O)C(O)C(=O)O [ERGOTAMINE TARTRATE]"
endpoint_result = "Compound metabolized"

[[record]]
molecule = "NC12CC3CC(CC(C3)C1)C2"
endpoint_result = "Compound NOT metabolized"

[[record]]
molecule = "COc1ccc([C@@H]2Sc3ccccc3N(CCN(C)C)C(=O)[C@@H]2OC(C)=O)cc1"
endpoint_result = "Compound metabolized"

[[record]]
molecule = "Cc1ccc(NC(=O)c2ccc(CN3CCN(C)CC3)cc2)cc1Nc1nccc(-c2cccnc2)n1"
endpoint_result = "Compound NOT metabolized"

[[record]]
molecule = "COc1ccccc1OCC(O)COC(N)=O (stereo not given)"
endpoint_result = "Compound NOT metabolized"

[[record]]
molecule = "Cc1cc2c(cc1S(N)(=O)=O)S(=O)(=O)CCC2"
endpoint_result = "Compound NOT metabolized"

[[record]]
molecule = "O=P(O)(O)O.c1ccc(CN(CC2=NCCN2)c2ccccc2)cc1 [ANTAZOLINE PHOSPHATE]"
endpoint_result = "Compound NOT metabolized"

[[record]]
molecule = "CCN(CC)CCCC(C)Nc1c2ccc(Cl)cc2nc2ccc(OC)cc12 (stereo not given)"
endpoint_result = "Compound NOT metabolized"


The reported measurements were obtained from ChEMBL document CHEMBL5303573.
